Task for the reader: assign each of the following sequences its reported phosphorylation enrichment.
# Test system: c-Src;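 further: 11-residue human phosphosite peptides and single-mutation variants displayed on the E. coli surface, counted by deep sequencing, each peptide's frequency after selection divided by its frequency in the unselected input library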;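 further: frequency after pTyr selection over input frequency; kinase dosed for 20-30% of maximal phosphorylation in three min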
# assay.notes: phosphorylation enrichment, bacterial display (enrichment ratio); higher = better substrate or ligand; peptides without Tyr show the background
Just the number, please, no unit attached.

# sequence QRRLIYRCQVG [NR2E3_Y81_R76Q] ; its phosphorylation enrichment = 0.569

# sequence PIPAAYNRFDQ [CDC73_Y290_YF] ; its phosphorylation enrichment = 0.303

# sequence DPTFGYEDFTR [SESN2_Y323] ; its phosphorylation enrichment = 0.694

# sequence HKGASYAFRLS [PTPRD_Y891_V892A] ; its phosphorylation enrichment = 0.785

# sequence VYAADYYKLLG [ROR2_Y645] ; its phosphorylation enrichment = 2.26

# sequence ISDNAYQFMLT [MYH7_Y162_YF] ; its phosphorylation enrichment = 0.807

# sequence EGWQVYRLGAR [MISP_Y95] ; its phosphorylation enrichment = 4.5

# sequence LNCIYYKDQTG [RS1_Y166_W163C] ; its phosphorylation enrichment = 1.4

# sequence IGMFSYVMLAS [GGCX_Y301] ; its phosphorylation enrichment = 0.512

# sequence TIQMMYGCDVG [HLA-A_Y123_I121M] ; its phosphorylation enrichment = 0.513

# sequence DPEATYTTSGS [EPHA2_Y772_G777S] ; its phosphorylation enrichment = 0.633

# sequence EEQKKYFNATK [SCN5A_Y1494_M1498T_YF] ; its phosphorylation enrichment = 0.377

# sequence GMEIVYVFVKK [DNAI2_Y5_YF] ; its phosphorylation enrichment = 0.627

# sequence GISDEYHVIQH [GCDH_Y398_R402Q] ; its phosphorylation enrichment = 0.898

# sequence VGTKRYMAPEV [ACVRL1_Y375] ; its phosphorylation enrichment = 0.373

# sequence IRKVLYANNVM [ACTA1_Y296_D294V] ; its phosphorylation enrichment = 0.325

# sequence VDLIVYLRTNP [TK2_Y181] ; its phosphorylation enrichment = 0.364

# sequence AFLLLYFNDTH [BMP15_Y235] ; its phosphorylation enrichment = 0.486

# sequence RIVEIYSRRLR [GCH1_Y175_Q180R] ; its phosphorylation enrichment = 0.81

# sequence SHLSSYTTHPQ [NIPBL_Y195_P192L] ; its phosphorylation enrichment = 0.419

# sequence ILGRTHFVNHE [NEDD4_Y627_Y627H_YF] ; its phosphorylation enrichment = 0.377

# sequence PGNIVYSSLCG [BCOR_Y90] ; its phosphorylation enrichment = 5.73

# sequence AAVNGYVFGGG [ECHS1_Y137_A138V] ; its phosphorylation enrichment = 0.461

# sequence LYSGDYYRIQG [DDR2_Y740] ; its phosphorylation enrichment = 10.5

# sequence LRAGVYPEKDQ [DNM2_Y626] ; its phosphorylation enrichment = 0.507

# sequence LERFIYNRQEF [HLA-DPB1_Y59_E62Q_YF] ; its phosphorylation enrichment = 0.859

# sequence ADYYDYGHGLS [KHDRBS3_Y304] ; its phosphorylation enrichment = 4.65

# sequence SNKLFYQLEQE [PDPR_Y110_YF] ; its phosphorylation enrichment = 1.91

# sequence RGVVMYTSKDR [ZG16B_Y136_M133V] ; its phosphorylation enrichment = 0.622

# sequence HHTDEYEYDEL [TGM1_Y134] ; its phosphorylation enrichment = 0.916

# sequence GNLLIYTEFGN [HGD_Y166_K171N] ; its phosphorylation enrichment = 4.74

# sequence HEDPMYDIIRD [RP9_Y142] ; its phosphorylation enrichment = 5.36

# sequence VLRRVYVDFEG [KMT2B_Y1707] ; its phosphorylation enrichment = 0.602

# sequence EVVGRYSVHYA [MLH1_Y183_N187Y] ; its phosphorylation enrichment = 0.404

# sequence PMDTFYDSTRG [DYNC2H1_Y2231_YF] ; its phosphorylation enrichment = 0.664

# sequence SHNKYYMLVAH [MFSD8_Y134_R139H] ; its phosphorylation enrichment = 0.418

# sequence LSAPCYLNRIS [HEXA_Y421_W420C] ; its phosphorylation enrichment = 0.422

# sequence GYRVCYTPDSR [PTPRF_Y451_Y450C] ; its phosphorylation enrichment = 0.522

# sequence AESPEHVHMYT [FAM111A_Y511_Y511H] ; its phosphorylation enrichment = 0.369

# sequence FADIAYNYRQG [PAH_Y166_H170Q] ; its phosphorylation enrichment = 0.522

# sequence ATGGFYSFGGG [KRT24_Y120_YF] ; its phosphorylation enrichment = 1.83

# sequence KELAPYDENWF [RPS19_Y48] ; its phosphorylation enrichment = 0.458

# sequence YAADYYKLLGN [ROR2_Y646] ; its phosphorylation enrichment = 0.908

Cited source: the supplement of paper PMC10065799
